Origin of values: PubChem BioAssay AID493141

system: Alkaline phosphatase, tissue-nonspecific isozyme (Homo sapiens)
procedure-details: inhibition of tissue-nonspecific alkaline phosphatase – biochemical, selectivity assay for human IAP inhibitor project, SAR follow-up (AID 493141)
test-context: isolated enzyme, CDP-Star luminescence, 30 min
Active and inactive are the calls of the source. No rule for the calls is given here.
Please reply with one of these outcomes: TRUE (active), FALSE (inactive)

Prompt line: Test call for this molecule, please: Cc1ccc2sc(NNC(=O)c3ccc4c(c3)OCCO4)nc2c1C
Response line: FALSE

Prompt line: Test call for this molecule, please: Cc1cccc(C)c1NC(=S)N/N=C/c1ccc(O)c(O)c1O
Response line: FALSE

Prompt line: Test call for this molecule, please: COC(=O)/C=C1/S/C(=N/N=Cc2ccc(N(C)C)cc2)NC1=O
Response line: FALSE

Prompt line: Test call for this molecule, please: Cc1ccc(Nc2nc(-c3ccc(O)c(O)c3)cs2)cc1F
Response line: TRUE

* * *

system: Alkaline phosphatase, tissue-nonspecific isozyme (Homo sapiens) (UniProt P05186)
Sequence (P05186 whole entry, looked up): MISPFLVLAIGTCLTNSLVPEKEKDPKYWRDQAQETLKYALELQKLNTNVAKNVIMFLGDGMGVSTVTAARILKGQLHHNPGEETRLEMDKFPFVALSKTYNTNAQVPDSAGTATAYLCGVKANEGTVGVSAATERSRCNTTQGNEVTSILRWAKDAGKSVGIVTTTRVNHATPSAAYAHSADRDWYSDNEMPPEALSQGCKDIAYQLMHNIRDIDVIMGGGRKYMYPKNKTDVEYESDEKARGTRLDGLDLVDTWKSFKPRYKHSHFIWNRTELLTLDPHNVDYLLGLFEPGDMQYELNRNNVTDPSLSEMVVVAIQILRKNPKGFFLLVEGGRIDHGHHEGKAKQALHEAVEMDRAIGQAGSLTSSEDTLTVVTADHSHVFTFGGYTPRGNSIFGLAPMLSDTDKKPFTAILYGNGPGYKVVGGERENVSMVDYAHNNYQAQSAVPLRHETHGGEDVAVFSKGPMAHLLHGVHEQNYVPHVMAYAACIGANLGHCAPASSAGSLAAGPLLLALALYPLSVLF
procedure-details: inhibition of tissue-nonspecific alkaline phosphatase – biochemical, selectivity assay for human IAP inhibitor project, SAR follow-up (AID 493141)
test-context: isolated enzyme, CDP-Star luminescence, 30 min
The source made the active and inactive calls. The rule behind the calls is not given here.
Please reply with one of these outcomes: active, inactive

Solved cases below.
Oc1ccc(-c2csc(Nc3ccc(F)cc3)n2)cc1O : active
COC(=O)/C=C1\SC(N=Nc2c(O)[nH]c3ccccc23)=NC1=O : inactive
CC(=NNC(=S)Nc1ccccc1)c1ccc2c(c1)OCO2 : inactive
COc1cc(C=NN=C2SC(CC(=O)O)C(=O)N2c2ccc(O)cc2)ccc1O (stereo not given) : inactive
O=[N+]([O-])c1ccc(NC(=S)NCCC(c2ccccc2)c2ccccc2)cc1 : inactive

Prompt line: Test call for this compound, please: Cc1cccc(Nc2nc(-c3ccc(O)c(C(N)=O)c3)cs2)c1
Response line: inactive

Prompt line: Test call for this compound, please: Cc1ccc(Nc2nc(-c3ccc(O)c(C(N)=O)c3)cs2)cc1
Response line: inactive

Prompt line: Test call for this compound, please: CN(C)S(=O)(=O)c1cccc(NC(=S)NN=Cc2ccc(O)c(O)c2O)c1
Response line: inactive

Prompt line: Test call for this compound, please: COc1cccc(Nc2nc(-c3ccc(O)cc3)cs2)c1
Response line: inactive

Prompt line: Test call for this compound, please: Cc1ccc(Nc2nc(-c3ccc(O)c(O)c3)cs2)cc1
Response line: inactive

Prompt line: Test call for this compound, please: COc1ccc(/C=N/N=C2/NC(=O)C(CC(=O)O)S2)cc1OC (stereo not given)
Response line: inactive

Prompt line: Test call for this compound, please: O=S(=O)(c1ccc(NC(=S)N/N=C/c2ccc(O)c(O)c2)cc1)N1CCOCC1
Response line: active

Prompt line: Test call for this compound, please: Cc1ccc(-c2ccc(/C=N/N=C3\NC(=O)C(CC(=O)O)S3)o2)c([N+](=O)[O-])c1 (stereo not given)
Response line: inactive

* * *

system: UniProt:P05186
procedure-details: inhibition of tissue-nonspecific alkaline phosphatase – biochemical, selectivity assay for human IAP inhibitor project, SAR follow-up (AID 493141)
test-context: isolated enzyme, CDP-Star luminescence, 30 min
Calls of active or inactive are those of the source. How the calls were made is not given here.
Please reply with one of these outcomes: active, inactive

CCN(CC)S(=O)(=O)c1ccc(-c2csc(=Nc3cccc4ccccc34)n2C)cc1 : inactive
CC(C)(C)c1ccc(/C=N/N=C2\NC(=O)C(CC(=O)O)S2)cc1 (stereo unspecified) : inactive
Cn1c(=S)n(N=Cc2ccc3c(c2)OCO3)c2ccccc21 : inactive
COC(=O)/C=C1/S/C(=N/NC(=O)c2ccccc2C)NC1=O : inactive
COc1ccc(C=NNC(=S)Nc2ccccc2[N+](=O)[O-])cc1O : inactive

Prompt line: Test call for this compound, please: O=[N+]([O-])c1ccccc1NC(=S)NN=Cc1ccc(O)c(O)c1
Response line: active

Prompt line: Test call for this compound, please: CCOc1ccc(Nc2nc(-c3ccc(O)c(O)c3)cs2)cc1
Response line: inactive

Prompt line: Test call for this compound, please: Cc1ccc(Nc2nc(-c3ccc(O)cc3O)cs2)cc1C
Response line: inactive

Prompt line: Test call for this compound, please: N#CCCn1cc(/C=N/N=C2/NC(=O)C(CC(=O)O)S2)c(-c2ccc(F)cc2)n1 (stereo unspecified)
Response line: inactive

Prompt line: Test call for this compound, please: COC(=O)/C=C1\S/C(=N/N=C/CC(=O)OC)NC1=O
Response line: inactive

Prompt line: Test call for this compound, please: CCOc1cc(/C=N/N=C2\NC(=O)C(CC(=O)O)S2)ccc1O (stereo unspecified)
Response line: inactive
